System: Wnt signaling
MEASUREMENT PROTOCOL: TopFlash reporter gene bioassay in SW480 cells
Type: cell-based
TEST PARAMETERS: Homo sapiens, SW480, TopFlash reporter gene assay, inhibition of Wnt signaling; read-out: RGA, IC50 (μM) TopF
MEASURED ATTRIBUTE: IC50 (µM)

COMPOUND	MEASURED TARGET	UNIT ABBREV	IC50
C=CCN1CC(=O)N2[C@@H](Cc3ccc(O)cc3)C(=O)N(Cc3cccc(C(=O)NC)c3[N+](=O)[O-])C[C@@H]2N1C(=O)NCc1ccccc1	Wnt signaling	µM	7.51
C=CCN1CC(=O)N2C(CN(Cc3cccc(C#CC(C)(C)C)n3)C(=O)[C@@H]2Cc2ccc(O)cc2)N1C(=O)NCc1ccccc1 (stereo partly drawn)	Wnt signaling	µM	1.43
C=CCN1CC(=O)N2[C@@H](Cc3ccc(O)cc3)C(=O)N(Cc3ccc(F)c(Br)c3)C[C@@H]2N1C(=O)NCc1ccccc1	Wnt signaling	µM	0.39
C=CCN1CC(=O)N2[C@@H](Cc3ccc(O)cc3)C(=O)N(Cc3cccc(-c4cccc(C(N)=O)c4)c3)C[C@@H]2N1C(=O)NCc1ccccc1	Wnt signaling	µM	0.79
C=CCN1CC(=O)N2[C@@H](Cc3ccc(O)cc3)C(=O)N(Cc3csc4cc(NC(N)=O)ccc34)C[C@@H]2N1C(=O)NCc1ccccc1	Wnt signaling	µM	26.1

A = C=CCN1CC(=O)N2[C@@H](Cc3ccc(O)cc3)C(=O)N(Cc3cccc4c(-c5ccccc5)c[nH]c34)C[C@@H]2N1C(=O)NCc1ccccc1
B = C=CCN1CC(=O)N2[C@@H](Cc3ccc(O)cc3)C(=O)N(Cc3cccc(OC)c3Oc3cccc(F)c3)C[C@@H]2N1C(=O)NCc1ccccc1
C = C=CCN1CC(=O)N2[C@@H](Cc3ccc(O)cc3)C(=O)N(Cc3csc4c(N)cccc34)C[C@@H]2N1C(=O)NCc1ccccc1
D = C=CCN1CC(=O)N2[C@@H](Cc3ccc(O)cc3)C(=O)N(Cc3cccc(NC=O)c3)C[C@@H]2N1C(=O)NCc1ccccc1
E = C=CCN1CC(=O)N2[C@@H](Cc3ccc(O)cc3)C(=O)N(Cc3cccc(NC(C)=O)c3)C[C@@H]2N1C(=O)NCc1ccccc1
Query string: Order the items by recorded IC50; the first position goes to the largest value. A complete answer lists every label in the requested sequence.
Result string: B, C, E, D, A
(B: 7.05 µM, C: 3.18 µM, E: 1.25 µM, D: 0.76 µM, A: 0.3 µM)

I = C=CCN1CC(=O)N2[C@@H](Cc3ccc(O)cc3)C(=O)N(Cc3cccc(C(=O)N4CC=CC4)c3)C[C@@H]2N1C(=O)NCc1ccccc1
II = C=CCN1CC(=O)N2[C@@H](Cc3ccc(O)cc3)C(=O)N(Cc3ccc4ccn(S(=O)(=O)c5ccc(C)cc5)c4c3)C[C@@H]2N1C(=O)NCc1ccccc1
III = C=CCOc1ccc(CN2C[C@H]3N(C(=O)CN(CC=C)N3C(=O)NCc3ccccc3)[C@@H](Cc3ccc(O)cc3)C2=O)cc1
IV = C=CCN1CC(=O)N2[C@@H](Cc3ccc(O)cc3)C(=O)N(Cc3cccc4c(C(=O)C5CC5)cn(S(=O)(=O)c5ccc(C)cc5)c34)C[C@@H]2N1C(=O)NCc1ccccc1
V = C=CCN1CC(=O)N2[C@@H](Cc3ccc(O)cc3)C(=O)N(Cc3cn(CCC)c4ccccc34)C[C@@H]2N1C(=O)NCc1ccccc1
Query string: Sort these compounds on IC50 so the largest reading comes first. When ranking, write the labels in the order the request describes.
Result string: V, I, II, III, IV

P = C=CCN1CC(=O)N2[C@@H](Cc3ccc(O)cc3)C(=O)N(Cc3ccc(OC)c(Br)c3)C[C@@H]2N1C(=O)NCc1ccccc1
Q = C=CCN1CC(=O)N2[C@@H](Cc3ccc(O)cc3)C(=O)N(Cc3cccc4ccn(S(=O)(=O)c5ccc(Cl)cc5)c34)C[C@@H]2N1C(=O)NCc1ccccc1
R = CN1CC(=O)N2[C@@H](Cc3ccc(O)cc3)C(=O)N(Cc3cccc4scnc34)C[C@@H]2N1C(=O)NCc1ccccc1
S = C=CCN1CC(=O)N2[C@@H](Cc3ccc(O)cc3)C(=O)N(Cc3cccc4ccn(Cc5cccc([N+](=O)[O-])c5)c34)C[C@@H]2N1C(=O)NCc1ccccc1
T = C=CCN1CC(=O)N2C(Cc3ccc(O)cc3)C(=O)N(Cc3ccccc3N3CCNCC3)CC2N1C(=O)NCc1ccccc1 (stereo not drawn)
Query string: Endpoint returns the given compounds ordered by ascending IC50. In your reply, arrange the labels in the requested order.
Result string: Q, P, S, R, T
(Q: 0.43 µM, P: 1.64 µM, S: 3.13 µM, R: 4.97 µM, T: 36.1 µM)

###

MEASURED TARGET: cDNA-expressed human hepatic CYP3A4 (Homo sapiens)
Construct: purchased BD Gentest 456202
Sequence (P08684 whole entry): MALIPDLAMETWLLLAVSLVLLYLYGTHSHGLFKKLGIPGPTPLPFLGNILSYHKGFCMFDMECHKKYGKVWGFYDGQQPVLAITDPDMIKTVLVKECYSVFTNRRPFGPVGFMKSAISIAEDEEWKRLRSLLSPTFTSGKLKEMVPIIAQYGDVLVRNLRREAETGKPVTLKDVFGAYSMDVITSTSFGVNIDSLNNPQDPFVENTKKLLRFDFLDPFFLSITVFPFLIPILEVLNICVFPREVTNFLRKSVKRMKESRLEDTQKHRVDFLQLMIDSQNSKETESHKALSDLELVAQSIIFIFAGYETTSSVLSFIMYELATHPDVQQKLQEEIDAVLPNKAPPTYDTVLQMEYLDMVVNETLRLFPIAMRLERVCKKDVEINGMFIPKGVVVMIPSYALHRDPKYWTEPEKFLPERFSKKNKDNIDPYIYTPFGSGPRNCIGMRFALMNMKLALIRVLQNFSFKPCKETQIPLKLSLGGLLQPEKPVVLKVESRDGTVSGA
MEASUREMENT PROTOCOL: P450 CYP3A4 inhibitory activity screening (BFC substrate, fluorescence)
Assay type: biochemical
TEST PARAMETERS: P450 CYP3A4 inhibitory activity screening, fluorescent assay; read-out: CYP3A4 inhibition, IC50 (μM) fluorescent assay
MEASURED ATTRIBUTE: IC50 (µM)

Here is how some molecules turned out for IC50.
MOLECULE	IC50 [µM]
C=CCN1CC(=O)N2[C@@H](Cc3ccc(O)cc3)C(=O)N(Cc3cccc(C(N)=O)c3[N+](=O)[O-])C[C@@H]2N1C(=O)NCc1ccccc1	44.4
C=CCN1CC(=O)N2[C@@H](Cc3ccc(O)cc3)C(=O)N(Cc3cccc(NC(=O)NC(N)=O)c3)C[C@@H]2N1C(=O)NCc1ccccc1	16.8
C=CCN1CC(=O)N2[C@@H](Cc3ccc(OS(N)(=O)=O)cc3)C(=O)N(Cc3cccc(N4CCCC4=O)c3)C[C@@H]2N1C(=O)NCc1ccccc1	9
C=CCN1CC(=O)N2[C@@H](Cc3ccc(O)cc3)C(=O)N(Cc3cccc(-c4cccc(C(=O)O)c4)c3)C[C@@H]2N1C(=O)NCc1ccccc1	12.9
C=CCN1CC(=O)N2[C@@H](Cc3ccc(O)cc3)C(=O)N(Cc3cccc(NS(C)(=O)=O)c3)C[C@@H]2N1C(=O)NCc1ccccc1	9.16

a = C=CCN1CC(=O)N2[C@@H](Cc3ccc(O)cc3)C(=O)N(Cc3cccc(C(=O)N(C)C)n3)C[C@@H]2N1C(=O)NCc1ccccc1
b = C=CCN1CC(=O)N2[C@@H](Cc3ccc(O)cc3)C(=O)N(Cc3cccc4c(=O)ccoc34)C[C@@H]2N1C(=O)NCc1ccccc1
c = C=CCN1CC(=O)N2[C@@H](Cc3ccc(OS(N)(=O)=O)cc3)C(=O)N(Cc3cccc4c3ncn4C)C[C@@H]2N1C(=O)NCc1ccccn1
d = C=CCN1CC(=O)N2C(Cc3ccc(O)cc3)C(=O)N(Cc3cccc4c(-c5ccccc5)cn(S(=O)(=O)c5ccccc5)c34)C[C@@H]2N1C(=O)NCc1ccccc1 (stereo partly drawn)
Query string: Number of molecules to sort: 4. Sort criterion: IC50, ascending. I'd appreciate it if you listed the labels in the requested order.
Result string: d, b, c, a

A = C=CCN1CC(=O)N2[C@@H](Cc3ccc(O)cc3)C(=O)N(Cc3cccc(N(C)C=O)c3)C[C@@H]2N1C(=O)NCc1ccccc1
B = C=CCN1CC(=O)N2[C@@H](Cc3ccc(O)cc3)C(=O)N(Cc3cccc(C(=O)NOC)c3)C[C@@H]2N1C(=O)NCc1ccccc1
Query string: # argmax over IC50 for candidates A and B Mark your answer with the label of the selected entry.
Result string: B

###

System: Wnt signaling
MEASUREMENT PROTOCOL: TopFlash reporter gene bioassay in SW480 cells
Type: cell-based
TEST PARAMETERS: Homo sapiens, SW480, TopFlash reporter gene assay, inhibition of Wnt signaling; read-out: RGA, IC50 (μM) TopF
MEASURED ATTRIBUTE: IC50 (µM)

a = C=CCN1CC(=O)N2[C@@H](Cc3ccc(O)cc3)C(=O)N(Cc3ccc([N+](=O)[O-])c(O)c3)C[C@@H]2N1C(=O)NCc1ccccc1
b = C=CCN1CC(=O)N2[C@@H](Cc3ccc(O)cc3)C(=O)N(Cc3ccc(F)c(C#N)c3)C[C@@H]2N1C(=O)NCc1ccccc1
c = C=CCN1CC(=O)N2[C@@H](Cc3ccc(O)cc3)C(=O)N(Cc3cccc4ccn(Cc5cccc(N)c5)c34)C[C@@H]2N1C(=O)NCc1ccccc1
Query string: # ascending order, key=IC50 List the labels, following the order given in the request.
Result string: b, c, a
(b: 0.87 µM, c: 3.62 µM, a: 7.62 µM)

###

Tested on: Wnt signaling
MEASUREMENT PROTOCOL: TopFlash reporter gene bioassay in SW480 cells
Format: cell-based
TEST PARAMETERS: Homo sapiens, SW480, TopFlash reporter gene assay, inhibition of Wnt signaling; read-out: RGA, IC50 (μM) TopF
MEASURED ATTRIBUTE: IC50 (µM)

// solved cases for IC50 follow
COMPOUND	IC50 / µM
C=CCN1CC(=O)N2[C@@H](Cc3ccc(OS(=O)(=O)NC)cc3)C(=O)N(Cc3ccc(F)cc3F)C[C@@H]2N1C(=O)NCc1ccccc1 [compound 151]	10.2
C=CCN1CC(=O)N2[C@@H](Cc3ccc(O)cc3)C(=O)N(Cc3cccc(-c4cccc(NC(C)=O)c4)c3)C[C@@H]2N1C(=O)NCc1ccccc1 [compound 18]	0.42
C=CCN1CC(=O)N2[C@@H](Cc3ccc(O)cc3)C(=O)N(Cc3cccc4c3ncn4CC(N)=O)C[C@@H]2N1C(=O)NCc1ccccc1 [compound 267]	6.63
C=CCN1CC(=O)N2[C@@H](Cc3ccc(O)cc3)C(=O)N(Cc3cccc(-c4ccc(N)nc4)c3)C[C@@H]2N1C(=O)NCc1ccccc1 [compound 40]	0.63

A = C=CCN1CC(=O)N2[C@@H](Cc3ccc(O)cc3)C(=O)N(Cc3ccc(F)c4scnc34)C[C@@H]2N1C(=O)NCc1ccc(F)c(F)c1 [compound 80]
B = C=CCN1CC(=O)N2[C@@H](Cc3ccc(O)cc3)C(=O)N(Cc3cccc(C#N)c3)C[C@@H]2N1C(=O)NCc1ccccc1 [compound 132]
Query string: Of A and B , whose reported IC50 is numerically smaller? Please respond with the label that marks your chosen entry.
Result string: A
(A: 0.96 µM, B: 1.71 µM)

P = C=CCN1CC(=O)N2[C@@H](Cc3ccc(O)cc3)C(=O)N(Cc3ccccc3OC(F)F)C[C@@H]2N1C(=O)NCc1ccccc1 [compound 58]
Q = C=CCOc1c(CN2C[C@H]3N(C(=O)CN(CC=C)N3C(=O)NCc3ccccc3)[C@@H](Cc3ccc(O)cc3)C2=O)cccc1C(C)(C)C [compound 143]
R = C=CCN1CC(=O)N2[C@@H](Cc3ccc(O)cc3)C(=O)N(Cc3cccc(C(=O)N4CCOCC4)c3)C[C@@H]2N1C(=O)NCc1ccccc1 [compound 212]
Query string: With regard to IC50, arrange the entries in ascending order, please. Answer by writing out the labels in the requested order.
Result string: P, Q, R

I = C=CCN1CC(=O)N2[C@@H](Cc3ccc(O)cc3)C(=O)N(Cc3cccc4[nH]cnc34)C[C@@H]2N1C(=O)NCc1ccccc1 [compound 49]
II = C=CCN1CC(=O)N2[C@@H](Cc3ccc(O)cc3)C(=O)N(Cc3ccccc3S(C)(=O)=O)C[C@@H]2N1C(=O)NCc1ccccc1 [compound 188]
Query string: For I and II , which recorded IC50 is lower? Refer to your chosen item by its label in the answer.
Result string: I
